Values compiled from ChEMBL document CHEMBL4043274.

ASSAY OVERVIEW: Protein binding in mouse plasma
Format: ADME, cell-free
CONDITION INFO: read-out: PPB (converted)
MEASURED ENDPOINT: fraction unbound

Input: Name the reported fraction unbound value associated with the compound CCc1c(-c2ccc(N3CC4CCCNC4C3)cc2)[nH]c(=O)c(C(=O)O)c1O (configuration not stated)
Output: 0.27

Input: Ok, now CCc1c(-c2ccc(N3C[C@@H]4[C@@H](N)[C@@H]4C3)cc2)[nH]c(=O)c(C(=O)O)c1O
Output: 0.12

====

ASSAY OVERVIEW: Volume of distribution at steady state in Sprague-Dawley rat at 5 mg/kg, iv administered as single dose
Type: ADME, organism-based
CONDITION INFO: in vivo, read-out: Vdss
MEASURED ENDPOINT: Vd (L/kg)
Give your result in L/kg as a bare value.

Input: Name the reported Vd value associated with the molecule CCc1c(-c2ccc(N3C[C@@H]4[C@@H](N)[C@@H]4C3)cc2)[nH]c(=O)c(C(=O)O)c1O
Output: 0.54

====

ASSAY OVERVIEW: Volume of distribution at steady state in Sprague-Dawley rat at 10 mg/kg, iv administered as single dose
Format: ADME, organism-based
CONDITION INFO: in vivo, read-out: Vdss
MEASURED ENDPOINT: Vd
The reply should consist of the numeric value with the unit placed after it.

Input: Name the reported Vd value associated with the molecule CCc1c(-c2ccc(N3CC4CCCNC4C3)cc2)[nH]c(=O)c(C(=O)O)c1O (stereo unspecified)
Output: 2.9 L/kg
